target or system: PI3Kδ (p110δ/p85α) (Homo sapiens)
Construct: purchased Millipore (Bedford, Mass.)
Sequence (O00329 whole entry): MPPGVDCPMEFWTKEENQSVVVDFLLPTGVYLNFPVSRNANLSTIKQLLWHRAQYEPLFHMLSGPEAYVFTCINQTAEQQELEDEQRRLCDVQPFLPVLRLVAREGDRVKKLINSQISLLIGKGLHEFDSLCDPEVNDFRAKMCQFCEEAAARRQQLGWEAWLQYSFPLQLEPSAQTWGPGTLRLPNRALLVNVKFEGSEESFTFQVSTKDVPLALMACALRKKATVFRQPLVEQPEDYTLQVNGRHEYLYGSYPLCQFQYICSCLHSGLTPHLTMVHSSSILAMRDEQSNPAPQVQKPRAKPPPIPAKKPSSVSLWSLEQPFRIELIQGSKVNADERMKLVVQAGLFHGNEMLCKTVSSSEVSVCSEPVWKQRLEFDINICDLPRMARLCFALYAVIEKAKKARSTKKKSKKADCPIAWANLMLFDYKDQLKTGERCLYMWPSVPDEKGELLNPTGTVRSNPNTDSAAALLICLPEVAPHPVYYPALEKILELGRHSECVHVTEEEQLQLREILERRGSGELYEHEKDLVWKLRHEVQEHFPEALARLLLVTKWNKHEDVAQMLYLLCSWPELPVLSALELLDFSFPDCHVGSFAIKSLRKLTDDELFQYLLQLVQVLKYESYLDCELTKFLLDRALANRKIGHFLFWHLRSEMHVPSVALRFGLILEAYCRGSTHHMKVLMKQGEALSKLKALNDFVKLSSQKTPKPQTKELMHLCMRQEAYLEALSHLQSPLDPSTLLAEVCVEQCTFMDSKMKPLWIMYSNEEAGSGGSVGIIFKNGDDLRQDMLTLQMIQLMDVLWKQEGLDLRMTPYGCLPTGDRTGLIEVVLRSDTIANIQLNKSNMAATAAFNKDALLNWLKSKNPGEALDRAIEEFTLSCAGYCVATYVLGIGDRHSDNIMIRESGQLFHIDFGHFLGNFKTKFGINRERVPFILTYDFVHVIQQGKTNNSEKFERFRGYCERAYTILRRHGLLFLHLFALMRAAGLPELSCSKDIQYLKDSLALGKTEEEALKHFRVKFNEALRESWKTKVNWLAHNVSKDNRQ
Sequence (P27986 whole entry partner): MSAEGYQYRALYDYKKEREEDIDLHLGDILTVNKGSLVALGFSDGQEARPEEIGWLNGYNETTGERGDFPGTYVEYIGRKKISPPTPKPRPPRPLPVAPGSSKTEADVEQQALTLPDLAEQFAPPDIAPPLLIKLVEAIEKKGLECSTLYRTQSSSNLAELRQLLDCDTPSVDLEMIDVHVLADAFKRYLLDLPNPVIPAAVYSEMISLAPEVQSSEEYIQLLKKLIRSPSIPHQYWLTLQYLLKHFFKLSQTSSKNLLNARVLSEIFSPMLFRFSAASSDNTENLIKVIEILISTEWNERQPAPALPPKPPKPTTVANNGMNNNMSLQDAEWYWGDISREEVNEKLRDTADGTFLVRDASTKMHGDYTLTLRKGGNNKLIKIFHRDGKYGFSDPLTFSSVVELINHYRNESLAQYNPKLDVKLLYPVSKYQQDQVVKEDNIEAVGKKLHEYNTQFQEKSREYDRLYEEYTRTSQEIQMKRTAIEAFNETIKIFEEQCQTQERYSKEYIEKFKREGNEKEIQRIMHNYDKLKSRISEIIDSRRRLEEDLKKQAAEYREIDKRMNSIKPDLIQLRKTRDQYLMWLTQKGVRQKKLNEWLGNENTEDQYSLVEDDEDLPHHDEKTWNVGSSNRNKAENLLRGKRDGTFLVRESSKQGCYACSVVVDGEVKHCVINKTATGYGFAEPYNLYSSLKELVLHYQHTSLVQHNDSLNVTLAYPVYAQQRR
assay procedure: PI3Kδ scintillation proximity assay
Type: biochemical
Protocol: Materials: [γ-^33P]ATP (10 mCi/mL) was purchased from Perkin-Elmer (Waltham, Mass.). […] Assay: The kinase reaction was conducted in polystyrene 384-well matrix white plate from Thermo Fisher Scientific in a final volume of 25 μL. […] After the plate sealing, plates were shaken overnight at room temperature and centrifuged at 1800 rpm for 10 minutes, the radioactivity of the product was determined by scintillation counting on Topcount (Perkin-Elmer). […]
I'd appreciate it if you could supply IC50 values for the items below.

Worked cases, answers included:
Which IC50 reading was recorded for the compound CC(Nc1ncnc2[nH]cnc12)c1cc(Cl)c2cccnc2c1N1CCC(NS(C)(=O)=O)CC1 (stereo not shown) [Example 81, bis(trifluoroacetate)] ?
100 to 250 nM

Now try CC(=O)N[C@H]1CCN(c2c(C(C)Nc3ncnc4[nH]cnc34)cc(Cl)c3cccnc23)C1 (stereo partly shown) [Example 13, bis-trifluoroacetate] .
< 50 nM

Field entry: CC(Nc1ncnc2[nH]cnc12)c1cc(Cl)c2cccnc2c1N1CCC(O)(c2ccccc2)CC1 (stereo not shown) [Example 49]
> 1000 nM

// same read-out, input: CC(Nc1ncnc2[nH]cnc12)c1ccc2cccnc2c1-c1cccc(F)c1 (stereo not shown) [Example 8, bis-trifluoroacetate]
250 to 500 nM

Also CC(Nc1ncnc2[nH]cnc12)c1cc(Cl)c2cccnc2c1N1CCN(C2CCCCC2)CC1 (stereo not shown) [Example 65, tris(trifluoroacetate)] , if possible.
50 to 100 nM

Please state IC50 for every compound in the list that follows.
1. CC(Nc1ncnc2[nH]cnc12)c1cc(Cl)c2cccnc2c1N1CCC(C#N)C1 (mixture of isomers) [Example 60, bis(trifluoroacetate)]
2. CC(Nc1ncnc2[nH]cnc12)c1cc(Cl)c2ccnnc2c1-c1ccccc1F (single isomer, unassigned) [Example 25]

["100 to 250 nM", "> 1000 nM"]

---

Kindly supply the reported pIC50 values for the records listed here.
target or system: PI3Kδ (p110δ/p85α) (Homo sapiens)
Construct: purchased Millipore (Bedford, Mass.)
assay procedure: PI3Kδ scintillation proximity assay
Type: biochemical
pIC50: −log10 of the molar value.

Bench note: what pIC50 did CC(Nc1ncnc2[nH]cnc12)c1cc(Cl)c2cccnc2c1N1CCN(C(=O)c2cccnc2)CC1 (stereo not shown) [Example 96, tris(trifluoroacetate)] show?
> 7.30

Look at each compound and report its pIC50.
1. CNC(=O)c1cc(F)cc(-c2c(C(C)Nc3ncnc4[nH]cnc34)cc(Cl)c3ccnnc23)c1 (stereo not shown)
2. CC(Nc1ncnc2[nH]cnc12)c1cc(Cl)c2cccnc2c1N1CCC(F)CC1 (stereo not shown) [Example 62, bis(trifluoroacetate)]
3. CC(Nc1ncnc2[nH]cnc12)c1cc(Cl)c2cccnc2c1N1CCN(C(=O)c2cccc(F)c2)CC1 (stereo not shown) [Example 92, bis(trifluoroacetate)]

["< 6.00", "6.60 to 7.00", "6.60 to 7.00"]
